Source of measurements: ChEMBL document CHEMBL1961873

biological target: Serine/threonine-protein kinase Sgk2 (Homo sapiens); conditions: at 1 µM
Description: GSK_PKIS: SGK2 mean inhibition at 1 uM [Nanosyn]
REPORTED_PROPERTY: inhibition
Note to self: number, then unit, no commentary.

>>> print(df.to_string())
                              sample_smiles                       experimental_system  endpoint_value
0  O=C(O[C@H]1CN[C@H](C#Cc2cc3ncnc(Nc4ccc5c(cnn5Cc5ccccc5)c4)c3s2)C1)N1CCOCC1  Serine/threonine-protein kinase Sgk2 (Homo sapiens)           4.74%
1  COc1ccc(-c2nn3ncccc3c2-c2ccnc(Nc3ccc(F)c(F)c3)n2)cc1  Serine/threonine-protein kinase Sgk2 (Homo sapiens)           7.74%
2  CNC(=O)c1sc(-n2cnc3cc(OC)c(OC)cc32)cc1OCc1ccccc1C(F)(F)F  Serine/threonine-protein kinase Sgk2 (Homo sapiens)           2.63%

Ask: Write down the reported inhibition of CS(=O)(=O)CCNCc1ccoc1-c1ccc2ncnc(Nc3ccc(OCc4ccccc4)cc3)c2c1 , test system: Serine/threonine-protein kinase Sgk2 (Homo sapiens).
Result: -3.3%

Ask: Can you check CCN1CCC(C(=O)Nc2n[nH]c3nnc(-c4cccc(F)c4F)cc23)CC1 next?
Result: 0.65%

Ask: Can you check COc1ccc(Nc2ncc(-c3ccccc3)o2)cc1OC next?
Result: -0.37%

Ask: Can you check Cc1nnc(-c2cccc(-c3ccc(C(=O)NCC4CC4)cc3)c2)o1 next?
Result: 7.09%

Ask: Can you check Cc1cc(O)cc(C)c1/C=C/c1cncc(C(=O)OC(C)(C)C)c1 next?
Result: 4.38%

Ask: Can you check O=C(Nc1n[nH]c2nnc(-c3cccnc3)cc12)C1CC1 next?
Result: 3.04%

Ask: Can you check CN(C)CCNC(=O)Nc1ccc(N(C)c2ccnc(Nc3ccc(CS(C)(=O)=O)cc3)n2)cc1 next?
Result: -2.21%

Ask: Can you check CS(=O)(=O)Nc1ccc(-c2cc(-c3ccccc3)cc(C(N)=O)c2N)cc1 next?
Result: 0.51%

Ask: Can you check Cc1ccc(-c2cc3c(NC(=O)C4CC4)ncnc3o2)cc1 next?
Result: 8.63%

Ask: Can you check Fc1cccc(COc2ccc(Nc3ncncc3C#Cc3ccccc3)cc2Cl)c1 next?
Result: 8.63%

Ask: Can you check CNC(=O)c1ncccc1Nc1nc(Nc2cc3c(cc2OC)CCCN3C(=O)CN(C)C)nc2[nH]ccc12 next?
Result: 1.29%

Ask: Can you check NS(=O)(=O)c1cccc(N/C=C2\C(=O)Nc3ccccc32)c1 next?
Result: 11.5%

Ask: Can you check CC(C)c1ccc(-c2cc(-c3c[nH]nc3-c3ccccn3)ccn2)cc1 next?
Result: 3.85%

Ask: Can you check O=C(O[C@H]1CN[C@H](C#Cc2cc3ncnc(Nc4ccc5c(ccn5Cc5cc(F)ccc5F)c4)c3s2)C1)N1CCOCC1 next?
Result: 0.96%

Ask: Can you check COc1c(C(N)=O)cc(-c2ccc(Cl)cc2)cc1-c1ccc(S(N)(=O)=O)cc1 next?
Result: 5%

Ask: Can you check COc1cc(N2CCN(C(C)C)CC2)ccc1Nc1nc(Nc2cccc(F)c2C(=O)O)c2cc[nH]c2n1 next?
Result: 3.35%

Ask: Can you check CCS(=O)(=O)c1ccc(OC)c(Nc2ncc(-c3cccc(F)c3)o2)c1 next?
Result: 1.18%
